# TESTED_SYSTEM: human PCSK9 (human, UniProt Q8NBP7 31-692, limits assumed)
# Sequence (Q8NBP7 31-692 limits assumed): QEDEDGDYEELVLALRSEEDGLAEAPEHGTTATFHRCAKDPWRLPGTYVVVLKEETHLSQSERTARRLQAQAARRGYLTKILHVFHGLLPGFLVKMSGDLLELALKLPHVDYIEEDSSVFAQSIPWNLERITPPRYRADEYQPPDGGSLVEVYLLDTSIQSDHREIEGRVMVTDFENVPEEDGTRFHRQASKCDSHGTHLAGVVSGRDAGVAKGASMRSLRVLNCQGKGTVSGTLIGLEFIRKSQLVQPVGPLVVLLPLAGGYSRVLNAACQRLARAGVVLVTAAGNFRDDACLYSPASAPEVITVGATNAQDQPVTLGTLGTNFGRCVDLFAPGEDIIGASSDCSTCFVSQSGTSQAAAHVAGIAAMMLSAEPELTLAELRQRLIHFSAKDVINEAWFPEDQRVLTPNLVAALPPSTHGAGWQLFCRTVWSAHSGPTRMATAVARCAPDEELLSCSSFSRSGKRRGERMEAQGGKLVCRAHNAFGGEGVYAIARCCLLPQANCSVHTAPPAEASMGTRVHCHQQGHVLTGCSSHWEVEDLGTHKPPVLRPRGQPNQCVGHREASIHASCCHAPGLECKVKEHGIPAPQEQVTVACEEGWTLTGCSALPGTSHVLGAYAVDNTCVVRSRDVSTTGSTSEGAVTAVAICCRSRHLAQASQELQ
# MEASUREMENT_PROTOCOL: cell-based or functional assay
MEASURED_PROPERTY: Fab IC50 (nM), inhibition of PCSK9 on LDL uptake (Exopolar assay)

BINDER: AX1 Fab (Fab, V domains shown, Soluble Fab from E. coli TG1 periplasm; Tags encoded by the display vector are not described for the protein) VH: EVQLLESGGGLVQPGGSLRLSCKASGFTFTSYYMHWVRQAPGKGLEWIGRINPDSGSTKYNEKFKGRATISRDNSKNTLYLQMNSLRAEDTAVYYCARGGRLSWDFDVWGQGTLVTVSS VL: DIQMTQSPSSLSASVGDRVTITCRASQDISRYLAWYQQKPGKAPKLLIYAASSLQSGVPSRFSGSGSGTDFTLTISSLQPEDFATYYCAAYDYSLGGYVFGDGTKVEIKR
QUANTITATIVE_RESULT: 146
